Target: T1, Mouse FGFR2b (Mus musculus, UniProt P21803)
T1 construct: expressed in transfected cells; host or cells: Expi293
T1 sequence (P21803 22-707 isoform P21803-2 limits assumed): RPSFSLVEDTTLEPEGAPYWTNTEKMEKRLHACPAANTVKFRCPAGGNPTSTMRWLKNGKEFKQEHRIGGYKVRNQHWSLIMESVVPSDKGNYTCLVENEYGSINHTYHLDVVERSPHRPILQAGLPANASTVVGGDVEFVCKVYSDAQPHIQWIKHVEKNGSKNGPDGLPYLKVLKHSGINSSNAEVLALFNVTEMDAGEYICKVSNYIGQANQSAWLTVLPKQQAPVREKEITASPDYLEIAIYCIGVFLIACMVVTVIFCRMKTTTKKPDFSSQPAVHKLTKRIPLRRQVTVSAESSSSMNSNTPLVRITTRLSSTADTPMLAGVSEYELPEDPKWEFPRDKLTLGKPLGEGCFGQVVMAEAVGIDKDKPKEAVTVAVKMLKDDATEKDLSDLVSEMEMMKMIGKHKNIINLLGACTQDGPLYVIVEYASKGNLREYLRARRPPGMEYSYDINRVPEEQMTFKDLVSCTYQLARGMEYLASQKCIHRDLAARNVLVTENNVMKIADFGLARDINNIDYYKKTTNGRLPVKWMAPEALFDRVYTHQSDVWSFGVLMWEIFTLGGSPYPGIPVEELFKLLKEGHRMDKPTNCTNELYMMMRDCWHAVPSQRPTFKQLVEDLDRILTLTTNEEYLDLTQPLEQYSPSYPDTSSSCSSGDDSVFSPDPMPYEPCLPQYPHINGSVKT
Test: FACS binding on Expi293 cells, mouse FGFR2b (Example 10)
Conditions: Expi293 cells overexpressing mouse FGFR2b
experimental_readout: Emax (MFI)
Your answer is read as MFI, so omit the unit and give the number.

Consider the worked cases shown below.
molecule	Emax (MFI)
BGAm1371: parental murine anti-FGFR2b antibody (parental mouse clone); VH SEQ ID NO: 32, VL SEQ ID NO: 34 (antibody, V domains shown, Synthetic: VH AA; Synthetic: VL AA) VH: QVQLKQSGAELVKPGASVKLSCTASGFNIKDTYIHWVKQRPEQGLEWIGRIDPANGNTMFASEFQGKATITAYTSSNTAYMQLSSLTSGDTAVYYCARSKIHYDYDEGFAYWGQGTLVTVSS VL: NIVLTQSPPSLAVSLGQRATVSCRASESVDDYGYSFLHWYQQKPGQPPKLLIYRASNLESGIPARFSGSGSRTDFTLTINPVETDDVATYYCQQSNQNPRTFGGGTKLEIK	4984598
BGAh9239: humanized anti-FGFR2b IgG1 antibody from murine BGAm1823; VH SEQ ID NO: 9, VL SEQ ID NO: 10 (antibody, V domains shown, Synthetic: VH AA; Synthetic: VL AA) VH: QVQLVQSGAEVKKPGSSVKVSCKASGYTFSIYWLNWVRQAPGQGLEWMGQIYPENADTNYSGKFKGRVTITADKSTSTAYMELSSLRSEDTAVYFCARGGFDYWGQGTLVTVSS VL: DIQMTQSPSSLSASVGDRVTITCRASENIYSNLAWYQQKPGKAPKLLIYTATNLAEGVPSRFSGSGSGTDFTLTISSLQPEDFATYYCQHFYGILYTFGQGTRLEIK	5098781
BGAh9179: humanized anti-FGFR2b IgG1 antibody from murine BGAm1371; VH SEQ ID NO: 21, VL SEQ ID NO: 22 (antibody, V domains shown, Synthetic: VH AA; Synthetic: VL AA) VH: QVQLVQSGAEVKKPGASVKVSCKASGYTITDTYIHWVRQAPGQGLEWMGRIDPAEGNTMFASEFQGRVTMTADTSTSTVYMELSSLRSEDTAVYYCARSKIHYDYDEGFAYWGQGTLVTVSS VL: DIVLTQSPDSLAVSLGERATINCRASESVDDYGYSFLHWYQQKPGQPPKLLIYRASNLESGVPDRFSGSGSGTDFTLTISSLQAEDVAVYYCQQSNQNPRTFGGGTKVEIK	5145011

Now look at this entry.
// sample BGAm1823: parental murine anti-FGFR2b antibody; VH SEQ ID NO: 28, VL SEQ ID NO: 30 (antibody, V domains shown, Synthetic: VH AA; Synthetic: VL AA) VH: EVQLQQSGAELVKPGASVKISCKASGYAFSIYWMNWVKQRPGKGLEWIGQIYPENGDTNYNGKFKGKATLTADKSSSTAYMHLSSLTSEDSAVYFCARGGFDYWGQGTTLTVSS VL: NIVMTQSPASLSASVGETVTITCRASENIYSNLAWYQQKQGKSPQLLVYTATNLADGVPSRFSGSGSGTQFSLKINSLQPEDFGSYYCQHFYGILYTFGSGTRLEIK , its Emax (MFI) was 5194795
